Please respond with reported cytotoxicity at 10 µM for every item in the list.
Assay: Toxicity liver stage against HepG2, at 10uM
Assay type: cell-based
Design: test concentration 10 uM, cell line HepG2-A16-CD81EGFP
Conditions: human, HepG2-A16-CD81EGFP cells; read-out: INHIBITION
Expressed in %, but write only the number.

Requested field: cytotoxicity at 10 µM. Item: Cn1ccnc1CCNS(=O)(=O)c1cccnc1
10.7

Requested field: cytotoxicity at 10 µM. Item: Cn1cc(-c2cnc(N3CCOCC3)nc2)cc1C(=O)NCCO
7.15

Requested field: cytotoxicity at 10 µM. Item: CN(C)C[C@H]1OC[C@@H]2CCN(S(=O)(=O)c3ccccc3)C[C@@H]21
1.44

Requested field: cytotoxicity at 10 µM. Item: CCn1cc2c(n1)CN(Cc1ccncc1)CC2COCC1CC1 (stereo not given)
6.59

Requested field: cytotoxicity at 10 µM. Item: O=C([C@@H]1Cc2[nH]cnc2CN1CC1CC1)N1CCCC1
2.5

Requested field: cytotoxicity at 10 µM. Item: CSCC(CCO)NC(=O)Nc1cc(C)ccc1C (stereo not given)
-17

Requested field: cytotoxicity at 10 µM. Item: COC[C@@H]1CCC[C@]12CN(S(=O)(=O)c1cccs1)CCO2
-5.73

Requested field: cytotoxicity at 10 µM. Item: Cc1c[nH]nc1C1CN(c2ncccn2)CCO1 (stereo not given)
4.37

Requested field: cytotoxicity at 10 µM. Item: COC[C@@H]1CCC[C@@]12CN(C(=O)N(C)C)CCO2
-102

Requested field: cytotoxicity at 10 µM. Item: CN(C)C(=O)N1CCC2(CC1)CCN(c1ncccn1)C2
-1.05

Requested field: cytotoxicity at 10 µM. Item: COc1ccc(C(=O)N2CC(=O)N(CC3CC3)CC(O)C2)cc1 (stereo not given)
4.77

Requested field: cytotoxicity at 10 µM. Item: CCn1cnnc1CNC(=O)N1CCN(Cc2ccco2)CC1
-17.4

Requested field: cytotoxicity at 10 µM. Item: CCN1CCC(CC(=O)NCCc2nc(C)c(Cl)s2)CC1
-7.43

Requested field: cytotoxicity at 10 µM. Item: O=c1cc(CSc2nnc[nH]2)nc2sc3c(n12)CCCC3
-6.04

Requested field: cytotoxicity at 10 µM. Item: Cc1cccc(C(Nc2nccc(C)n2)C2CC2)n1 (stereo not given)
-2.67

Requested field: cytotoxicity at 10 µM. Item: CS(=O)(=O)Cc1noc(CN(Cc2ccco2)c2ccccc2)n1
-8.3

Requested field: cytotoxicity at 10 µM. Item: CN(C)c1ncc(CNS(=O)(=O)c2cccc3ccccc23)n1C
8.32

Requested field: cytotoxicity at 10 µM. Item: Cc1cc(C)nc(NCc2nnc3n2CCCCC3)n1
-10.6

Requested field: cytotoxicity at 10 µM. Item: CC(NC(=O)N(C)Cc1cccc(OC(F)F)c1)c1nncn1C (stereo not given)
-2.69

Requested field: cytotoxicity at 10 µM. Item: COc1cc2nc(NCCN3CCNC3=O)cc(C)c2cc1OC
-0.454

Requested field: cytotoxicity at 10 µM. Item: CC(=O)N1CCC(c2[nH]ncc2S(C)(=O)=O)CC1
0.752

Requested field: cytotoxicity at 10 µM. Item: COc1cccc2cc(CNC(=O)N3CCC(N4CCCC4)C3)oc12 (stereo not given)
-2.69

Requested field: cytotoxicity at 10 µM. Item: CN(Cc1noc(C2CC2)n1)C1CCN(Cc2nnc(C3CC3)o2)C1 (stereo not given)
-5.28

Requested field: cytotoxicity at 10 µM. Item: Cc1sc(CNS(N)(=O)=O)nc1-c1ccc(Cl)cc1
-7.45

Requested field: cytotoxicity at 10 µM. Item: CC(C)N(C)C(=O)CN1CCCC(c2ccc(C(=O)O)cc2)C1 (stereo not given)
-7.74

// provenance: ChEMBL document CHEMBL4513216
